Data origin, for the record: patent US20250179017A1

# Assay System: human EP2 (PTGER2) (Homo sapiens, UniProt P43116)
# Construct: Cayman Chemical (Human EP2 Reporter Assay Kit)
# Sequence (P43116 whole entry): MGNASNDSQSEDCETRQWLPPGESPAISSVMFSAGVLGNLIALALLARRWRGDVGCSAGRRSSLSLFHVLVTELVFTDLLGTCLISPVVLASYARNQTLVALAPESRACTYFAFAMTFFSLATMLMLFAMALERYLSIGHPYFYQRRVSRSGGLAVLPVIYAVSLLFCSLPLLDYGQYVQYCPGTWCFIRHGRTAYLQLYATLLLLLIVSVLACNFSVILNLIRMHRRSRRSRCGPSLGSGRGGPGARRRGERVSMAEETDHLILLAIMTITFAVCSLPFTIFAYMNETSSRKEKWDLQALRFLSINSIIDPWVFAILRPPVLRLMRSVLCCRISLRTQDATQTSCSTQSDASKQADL
# Assay Comment: EP2 antagonist assay (HEK-293 CNG membrane potential cAMP assay / 293T SEAP reporter assay, PGE2-stimulated)
# Format: cell-based
# Experimental Parameters: EP2 antagonist activity; concentration for 50% inhibition of signal compared to DMSO
pIC50: −log10 of the molar value.
Property: pIC50

In: Entry C[C@H](NC(=O)c1cc(-c2ccccc2)cc2ccn(Cc3ccc(-c4ccccc4)cc3)c12)c1ccc(C(=O)O)cc1 [Example 150] : reported pIC50 = ?
Out: > 7.00

In: Entry O=C(O)c1ccc(CNC(=O)c2ccc(Nc3ccc(F)cc3)c3ccn(Cc4ccc5ccccc5c4)c23)cc1 [Example 183] : reported pIC50 = ?
Out: > 7.00

In: Entry O=C(O)c1ccc(C2(NC(=O)c3cc(-c4cccc(C(F)(F)F)c4)cc4ccn(Cc5ccc(C(F)(F)F)cc5)c34)CC2)cc1 [Example 20] : reported pIC50 = ?
Out: ≤ 6.00

In: Entry O=C(O)c1ccc(C2(NC(=O)c3ccc(Nc4ccc(F)c(F)c4)c4ccn(Cc5ccc(C(F)(F)F)cc5)c34)CC2)cc1 [Example 63] : reported pIC50 = ?
Out: 6.00 to 7.00

In: Entry O=C(O)c1ccc(CNC(=O)c2cc(-c3ccccc3)cc3nnn(Cc4ccc(C(F)(F)F)cc4)c23)cc1 [Example 174] : reported pIC50 = ?
Out: > 7.00

In: Entry C[C@H](NC(=O)c1cc(-c2ccccc2)cc2ccn(Cc3ccc4ccccc4n3)c12)c1ccc(C(=O)O)cc1 [Example 143] : reported pIC50 = ?
Out: > 7.00

In: Entry C[C@H](NC(=O)c1cc(-c2ccccc2)cc2cnn(Cc3ccc(-c4ccccc4)cc3)c12)c1ccc(C(=O)O)cc1 [Example 198] : reported pIC50 = ?
Out: > 7.00

In: Entry C[C@H](NC(=O)c1cc(-c2ccccc2)cc2nnn(Cc3ccc(C(F)(F)F)cc3)c12)c1ccc(C(=O)O)cc1 [Example 179] : reported pIC50 = ?
Out: > 7.00
